Assignment: determine reported glass transition temperature for the given molecules.
One number for each entry, in °C.

| Molecule | Endpoint unit | glass transition temperature |
| --- | --- | --- |
| *Oc1ccc2c(c1)C(C)(c1ccc(OC(=O)c3ccc(C(*)=O)cc3)cc1)CC2(C)C (repeat unit) | °C | 252.50 |

Report glass transition temperature for every entry below.
1. *SC1CCCC(*)C1 (repeat unit)
2. *c1ccc(-c2ccc(Oc3ccc(C4(C)CC(C)(C)c5ccc(Oc6ccc(-c7ccc(N8C(=O)c9ccc(Oc%10ccc(C(C)(C)c%11ccc(Oc%12ccc%13c(c%12)C(=O)N(*)C%13=O)cc%11)cc%10)cc9C8=O)cc7)cc6C(F)(F)F)cc54)cc3)c(C(F)(F)F)c2)cc1 (repeat unit)

# output
[-52.00, 241.00]

Below are some molecules; for each one, tell me its glass transition temperature.
1. *Oc1ccc(NC(=O)c2ccc(OC3COC4C(Oc5ccc(C(=O)Nc6ccc(OC7COC8C(*)COC78)cc6)cc5)COC34)cc2)cc1 (repeat unit)
2. *CC(*)C(=O)[O][Na] (repeat unit)
3. *CC(C)C(=O)N* (repeat unit)
4. *Oc1cccc2ccc(Oc3ccc(NC(=O)c4ccc(Oc5ccc(C(=O)Nc6ccc(*)cc6)cc5)cc4)cc3)cc12 (repeat unit)

# output
165.00
114.40
96.00
236.00

Each molecule below has a reported value. Please supply its glass transition temperature.
1. *CCCCCCOc1ccc(C(=O)N(C(=O)c2ccc(O*)cc2)c2ccc(Oc3ccccc3)cc2)cc1 (repeat unit)
2. *Oc1ccc(CC(NC(=O)CCc2ccc(OC(=O)COCCOCC(*)=O)cc2)C(=O)OC(C)CC)cc1 (repeat unit)
3. *C(=O)OCCN(CCOC(=O)c1ccc2c(c1)C(=O)N(c1cccc(N3C(=O)c4ccc(*)cc4C3=O)c1)C2=O)c1ccc(/N=N/c2ccc(C)cc2)cc1 (repeat unit)

# output
[78.00, 44.00, 171.00]

Value sought for every listed molecule: glass transition temperature.
1. *c1cccc(Cc2cccc(N3C(=O)c4ccc([Si](C)(C)O[Si](C)(C)O[Si](C)(C)c5ccc6c(c5)C(=O)N(*)C6=O)cc4C3=O)c2)c1 (repeat unit)
2. *c1ccc([Si](c2ccccc2)(c2ccccc2)c2ccc(-c3nnc(-c4ccc(-c5nnc(*)o5)o4)o3)cc2)cc1 (repeat unit)
3. *CCCCOC(=O)c1ccc(-c2ccc(C(=O)O*)cc2)cc1 (repeat unit)
4. *CCCCCC(*)CCCCCCCC (repeat unit)

# output
1. 208.00
2. 276.00
3. 70.00
4. -72.00

# input Give its glass transition temperature value. Item: *c1ccc(-c2ccc3c(c2)C(CCCCCCCC)(CCCCCCCC)c2cc(*)ccc2-3)cc1 (repeat unit)
# output 81.00

* * *

Can you tell me glass transition temperature for the items I'm about to list?
Write the figure, then the unit, nothing else.

| Compound | glass transition temperature |
| --- | --- |
| *C(=O)c1ccc(Oc2ccc(-c3ccc(Oc4ccc(C(=O)c5ccc6c(c5)C(=O)N(c5ccc(Cc7ccc(N8C(=O)c9ccc(*)cc9C8=O)cc7)cc5)C6=O)cc4)cc3)cc2)cc1 (repeat unit) | 241.00 °C |
| *NC(CCC(=O)OCc1ccccc1)C(*)=O (repeat unit) | 17.00 °C |
| *CCN(*)C(=O)CC12CC3CC(CC(C3)C1)C2 (repeat unit) | 139.00 °C |
| *CC(O)COc1c(Cl)cc(C(C)(C)c2cc(Cl)c(O*)c(Cl)c2)cc1Cl (repeat unit) | 135.00 °C |
| *CC(*)(C)C(=O)OCCCCOc1ccc(OC(=O)c2ccc(OC)c(Br)c2)cc1 (repeat unit) | 69.00 °C |
| *O[Si](*)(C)CCCCCCCCCCC(=O)Oc1ccc(C(=O)OCCOc2ccc(C(=O)OC3CCC4(C)C(=CCC5C4CCC4(C)C(C(C)CCCC(C)C)CCC54)C3)cc2)cc1 (repeat unit) | 25.00 °C |
| *OC(=O)c1cccc(OCCCCCCCCOc2cccc(C(=O)OC3COC4C(*)COC34)c2)c1 (repeat unit) | 33.00 °C |
| *C(=O)Nc1ccc(C2(c3ccc(NC(=O)c4ccc5c(c4)C(=O)N(c4cccc(N6C(=O)c7ccc(*)cc7C6=O)c4)C5=O)cc3)c3ccccc3-c3ccccc32)cc1 (repeat unit) | 209.00 °C |
| *Nc1ccc(-c2ccc(NC(=O)Cc3cc(C)c(CC(*)=O)cc3C)cc2)cc1 (repeat unit) | 171.00 °C |
| *c1ccc(Oc2cccc(Oc3ccc(N4C(=O)c5ccc(Oc6ccc(C(C)(C)c7ccc(Oc8ccc9c(c8)C(=O)N(*)C9=O)cc7)cc6)cc5C4=O)cc3)c2)cc1 (repeat unit) | 246.00 °C |

Please report glass transition temperature for every entry that follows.
1. *c1ccc(-c2ccc(N(*)c3cc(C(F)(F)F)cc(C(F)(F)F)c3)cc2)cc1 (repeat unit)
2. *c1ccc(OCCOCCOc2cccc(N3C(=O)c4ccc(Oc5ccc6c(c5)C(=O)N(*)C6=O)cc4C3=O)c2)cc1 (repeat unit)
3. *c1c(C)cc(Cc2cc(C)c(N3C(=O)c4ccc(Oc5c(C)cc(-c6cc(C)c(Oc7ccc8c(c7)C(=O)N(*)C8=O)c(C)c6)cc5C)cc4C3=O)c(C)c2)cc1C (repeat unit)
4. *Oc1ccc(/N=C(\C)c2ccc(Oc3ccc(C(c4ccccc4)(c4ccccc4)c4ccc(Oc5ccc(/C(C)=N/c6ccc(*)cc6)cc5)cc4)cc3)cc2)cc1 (repeat unit)
5. *CCCCCCCC(=O)OC1COC(*)OC1 (repeat unit)

# output
["209.00 °C", "146.50 °C", "420.00 °C", "150.00 °C", "6.50 °C"]
